molecular target: human GLP-1 receptor (human, UniProt P43220 24-463); assay: cell-based or functional assay
Bridges are numbered along the chain shown (N, C = ends). Where no end group is shown, it is not given here. [ ]: non-standard residue; d: D form. Aib = CC(C)(N)C(=O)O
measured.property: In vitro activity (%) vs. GLP-1, cAMP EC50

{"binder": "H[Aib]QGTFTSDVSSYLLGQQQKEFIAWLVKGC [triple agonist of SEQ ID NO: 4]", "result": "8.5%"}
{"binder": "H[Aib]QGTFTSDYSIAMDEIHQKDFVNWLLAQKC (bridge 16-20) [triple agonist of SEQ ID NO: 33]", "result": "24.5%"}
{"binder": "Y[Aib]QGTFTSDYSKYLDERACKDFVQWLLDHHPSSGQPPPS (bridge 16-20; ends not checked) [triple agonist of SEQ ID NO: 71]", "result": "90.1%"}
